Sourced from ChEMBL document CHEMBL1201862

- System Name: Carboxy-terminal domain RNA polymerase II polypeptide A small phosphatase 1 (Homo sapiens)
- Sequence (Q9GZU7 whole entry, the tested form may be a part): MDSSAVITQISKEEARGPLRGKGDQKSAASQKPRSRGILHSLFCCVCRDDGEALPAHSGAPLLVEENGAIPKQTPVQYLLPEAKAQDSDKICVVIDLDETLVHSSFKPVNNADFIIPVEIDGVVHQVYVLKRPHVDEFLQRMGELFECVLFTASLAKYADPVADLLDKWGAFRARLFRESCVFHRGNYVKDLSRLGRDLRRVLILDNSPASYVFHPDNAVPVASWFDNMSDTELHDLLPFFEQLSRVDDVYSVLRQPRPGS
- Experiment Notes: inhibitors of CTDSP1, concentration-response testing, biochemical assay, absorbance-based, actives from ultra-high-throughput screening (AID 540297)
- Assay type: functional
Activity calls are given as the source filed them.
The entries below come with measured IC50 values attached.
Reported Property: IC50

[
  {
    "Compound": "CCC[N+]1(CC#CC2(O)CCCCC2)CCOCC1",
    "Reported Property": "IC50",
    "Reported": "5.44 µM (active)"
  },
  {
    "Compound": "Cc1cc(-c2ccccc2)nc2c(Br)c(C(=O)O)nn12",
    "Reported Property": "IC50",
    "Reported": "2.44 µM (active)"
  },
  {
    "Compound": "O=C(O)Cc1cccc(O)c(=O)c1C(=O)O",
    "Reported Property": "IC50",
    "Reported": "3.9 µM (active)"
  },
  {
    "Compound": "O=C(N/N=C/c1ccco1)C1CC1c1ccccc1 (stereo not given)",
    "Reported Property": "IC50",
    "Reported": "9.59 µM (active)"
  },
  {
    "Compound": "CN(Cc1ccccc1)C(=O)COC(=O)/C=C/c1ccco1",
    "Reported Property": "IC50",
    "Reported": "12.5 µM (active)"
  }
]

----------
- System Name: High affinity choline transporter 1 (Homo sapiens, UniProt Q9GZV3)
- Sequence (Q9GZV3 whole entry): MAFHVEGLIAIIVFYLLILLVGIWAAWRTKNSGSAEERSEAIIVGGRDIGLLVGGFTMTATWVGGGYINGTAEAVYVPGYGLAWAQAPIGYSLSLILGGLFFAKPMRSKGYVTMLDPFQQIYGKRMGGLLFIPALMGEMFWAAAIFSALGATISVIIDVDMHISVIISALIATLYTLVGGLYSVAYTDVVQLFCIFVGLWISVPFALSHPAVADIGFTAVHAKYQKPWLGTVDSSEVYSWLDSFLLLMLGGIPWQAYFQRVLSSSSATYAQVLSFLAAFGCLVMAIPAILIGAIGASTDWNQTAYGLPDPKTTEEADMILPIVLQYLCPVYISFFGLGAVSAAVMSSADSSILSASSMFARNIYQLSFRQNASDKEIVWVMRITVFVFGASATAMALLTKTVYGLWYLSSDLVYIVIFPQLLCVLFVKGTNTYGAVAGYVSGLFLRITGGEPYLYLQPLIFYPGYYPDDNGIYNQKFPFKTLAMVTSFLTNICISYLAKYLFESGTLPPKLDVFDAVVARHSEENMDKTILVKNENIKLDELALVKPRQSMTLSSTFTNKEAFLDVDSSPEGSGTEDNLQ
- Experiment Notes: CHT inhibitors, dose response, cell-based, 5-point CRC, membrane potential dye (AID 504840)
- Assay type: functional
Activity calls are given as the source filed them.
Item-by-item account of IC50
Reported Property: IC50

[
  {
    "Molecule": "CCCc1ccc(OCc2ccc(C(=O)NCc3cccnc3)o2)c(OC)c1",
    "Reported": "5.01 µM (active)"
  },
  {
    "Molecule": "CC(=O)SC(C[N+](=O)[O-])c1cn(C(C)=O)c2ccccc12 (stereo not drawn)",
    "Reported": "14.5 µM (active)"
  },
  {
    "Molecule": "Oc1c(Cl)cc(Cl)cc1/C=N/c1ccc(Br)cc1",
    "Reported": "13.2 µM (active)"
  },
  {
    "Molecule": "Cc1ccc(NC(=O)CNC(=O)c2cccc(Cl)c2)nc1",
    "Reported": "13.1 µM (active)"
  },
  {
    "Molecule": "Cc1cc(Cl)ccc1OCCCC(=O)N1CCN(C(=O)c2ccco2)CC1",
    "Reported": "2 µM (active)"
  },
  {
    "Molecule": "CC(C)c1ccc(/C=C(\\NC(=O)c2ccccc2)C(=O)NCCCn2ccnc2)cc1",
    "Reported": "15.8 µM (active)"
  },
  {
    "Molecule": "C=CCc1ccc(O)c(-c2cc(CC=C)ccc2O)c1 [MAGNOLOL]",
    "Reported": "2.89 µM (active)"
  },
  {
    "Molecule": "COc1ccc([N+](=O)[O-])c(S(=O)(=O)c2ccc(Cl)cc2)n1",
    "Reported": "11 µM (active)"
  }
]

----------
- Experiment Notes: growth suppression of beta-catenin-knockout colon cells, dose response, cell-based, HCT116, human colon tumor (AID 1045);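 note: HCT116 colon tumor cells with beta catenin knocked out; cells exposed to compound for 60 hours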
- Format: functional
Active and inactive are the calls of the source.

[
  {
    "Smiles Text": "Cc1ccc(S(=O)(=O)N2CCN(CC(=O)N/N=C\\C(Cl)=C\\c3ccccc3)CC2)cc1",
    "EC50": "39.3 µM (active)"
  },
  {
    "Smiles Text": "CC(C)OCCCNC(=O)c1c(N)n(Cc2cccs2)c2nc3ccccc3nc12",
    "EC50": "216 µM (active)"
  },
  {
    "Smiles Text": "COc1cc(C(=O)Oc2c(CN3CCOCC3)cc(Cl)c3cccnc23)cc(OC)c1OC",
    "EC50": "2.31 µM (active)"
  },
  {
    "Smiles Text": "Cc1c(NC(=O)CSc2cccc3cccnc23)c(=O)n(-c2ccccc2)n1C",
    "EC50": "17 µM (active)"
  }
]
